Sourced from the supplement of paper PMC9170038

Tested on: MS2 coat protein
Assay: apparent KD of MS2 coat protein; designed switch direction (-1 OFF switch, 1 ON switch): 1; higher = weaker reporter binding
Details: input ligand: microRNA oligo, concentration not stated
Please note: class 1 applies when apparent KD of MS2 coat protein is 90 nM or greater, and class 0 applies otherwise.

MONOMER SEQUENCE	CLASS ASSIGNMENT
GGUGACUUAAGAGGAUAUCCCGUAACAUUCGUCGAUACGAGACAUGAGGAUCACCCAUGUGAAAUGGAGAAGGCUUUCGCAAAG [Eternabot solution 48] (Eterna round: R96, puzzle: Same State NG 2)	class 0
ACAUGAGACUUAGGAUAUGUUGUACCUACAUGUGACAUGAGGAUCACCCAUGUGGUAAGUAUGAGGCAGAAGGGAGAGAUAUGU [Equivalence 47 - Jieux - Same State NG 2] (Eterna round: R96, puzzle: Same State NG 2)	class 0
UUUAGAUUCAGAGGAUAUUGAUGUUGUAAGUAACAAGAAGGCUGAAUGGUUAGAAUUGUUUAUUAACAUGAGGAUCACCCAUGU [JR_SSNG1_Sub009] (Eterna round: R96, puzzle: Same State NG 1)	class 0
GCGAGCGUACUUGCAGACAUGAGGAUCACCCAUGUAAAUGGGAAGGAUAUGGUACCGUUUCGGUACCAGAAGGUCCUAAGUGAG [JL SSNG3 1.49] (Eterna round: R96, puzzle: Same State NG 3)	class 1
UAGGCUGGUACAGGAUAUGCCGUAUUUUAGUCGGCAGAAGGGUGCUCACAUGAGGAUCACCCAUGUAUACAGCCAGAUCAUGUU [MOD JMF Solution 2] (Eterna round: R96, puzzle: Same State NG 1)	class 1
UUCCCAGCGGGAGGAUAUGGUGCCUUGUUGGUGCUAGAAGGUCCAACAUGAGGAUCACCCAUGUGGGAGUGGUCGAGAGACCUC [SS NG10LRO10] (Eterna round: R96, puzzle: Same State NG 1)	class 1
UAAAUAAAGUAAGGAUAUACAUGAGGAUUUCUCGUAGAAGGUACAAGACAUGAGGAUCACCCAUGUAUCGCUCCGUAGAGCGUA [Mat - Same State NG 1 - JL mod - D21] (Eterna round: R96, puzzle: Same State NG 1)	class 0
AGCUAGGUGGCAGGAUAUGGGCACACCUACAUGAGGAUCACCCAUGUCUAAAGGUUGCAAAAGGACCAGAAGGGCCACGCUAGC [Onzaislege] (Eterna round: R96, puzzle: Same State NG 2)	class 0
ACGCUAAAUGGAGGAUAUGGAGCCUUAUUGGCUCCAGAAGGUCAAAACAUGAGGAUCACCCAUGUGCGGUGGUCUAAUGACCAC [Eli NG1ss - 47] (Eterna round: R96, puzzle: Same State NG 1)	class 1

* * *

Tested on: K4 kissing-loop RNA reporter;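 note: bound reporter read as fluorescence of individual clusters on recovered sequencing chips by microscopy, with normalized cluster intensities fitted with a binding model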
Experiment: apparent KD of K4 kissing-loop reporter; higher = weaker reporter binding
Settings: Eterna round: R107; input ligand: theophylline 20 uM
Property: apparent KD of K4 kissing-loop reporter; scope: individual sequences
READOUT TYPE: apparent KD of K4 kissing-loop reporter (nM)

MONOMER SEQUENCE	READOUT TYPE	DATA VALUE
UGAUUGGCGAAAGUAGUGAUGUUACGAAUAUAGGAUAUUAGAGGAAUAAGAAGGAUAAAUGAGAAAUAGGUAAAUUGUUGGUUGG [FMN same state]	apparent KD of K4 kissing-loop reporter	116
UGACUGGACUGAAGGAGCGCAAAACUCCUAGUGAUGUUAGGAAAACGAGACAAAGUCUCGAUGCAGGUAGGUCGCAGUCUAGUCU	apparent KD of K4 kissing-loop reporter	194
UGGCGGACGAUCCGGAGUGAUGUUCCGGAUACCAGCAGAAGAGCCUGCCCUUGGCAGCCGUGCGACGCUGGGAGAGUCCGGCGUC [Requered]	apparent KD of K4 kissing-loop reporter	107

* * *

Property: apparent KD of MS2 coat protein; scope: individual sequences
Test system: MS2 coat protein
Test: apparent KD of MS2 coat protein; higher = weaker reporter binding
Conditions: Eterna round: R107; input ligand: theophylline 2 mM

MONOMER SEQUENCE	UNIT ABBREV	apparent KD of MS2 coat protein
CUAUAUAUAGCGGCCGCCACUUACUCAUGAGGUAACAACAUGAGGAUCACCCAUGUUUGAGGAUCAAGGACCGGGCUAUAUAUAG [AstrosSSTryB#4]	nM	33.2
UGCACUCAUGCGGCCGCCACUGUCGGCCGCCACUAAACAUGAGGAUCACCCAUGUAGGACCGGGACAGGACCGGGCAUGGGUGCU [TryBS - #DoubleAptamer 2]	nM	13.8
UCGCUCUGGGUGAAUCCCAGAGAUAUGGAAGGAGCGGACGAAAGUCCAGGUAGGUCGCCAUCGAACAUGAGGAUCACCCAUGUAC [Same State - Arginine A (Freestyle 27)]	nM	76.6
GGACUCGUCACGGCCGCCACUGCGGUGGUGUGACAUGAGGAUCACCCAUGUUGUCAUGCGGCCCUUAGGACCGGGUGUCGCGUCC [#1 Exclusion - Tryptophan B Attempt #25 (HarryS)]	nM	93.8
ACGAUAGGGCAUGAGGAUCACCCAUGUGAUACCAGCCUGGAAACAGGCCCUUGGCAGCAUUAAUACUCCAAUAACCUAUCGAAUA [TheoAX 17 #MicroSwitchBubble #AlternativeMS2]	nM	864
AAUAUCAUGAGGAUCACCCAUGAAGAAGAUACCAGAGUGAUGAUCCUCCCUUGGCAGCUUAACGCUGAUUGAUUACAAUCAGCGA	nM	200
AAAUUAUCGGCGGCCGCCACUAGAGUUAGGCUUAUGUACUGGGUAACAUGAGGAUCACCCAUGUAUAGGACCGGGCCAUAAUAAA [Same State - Tryptophan B (Freestyle 4)]	nM	57.5
GAUAUGGAAACAUGUCAGAUCCUUACCGGUCGAGGACCGGUACGGCCGCCACUCGAAAACGAUGUACAUGAGGAUCACCCAUGUA [Ex Tryptophan A 19]	nM	14.7
AGUGACUACAUCUGGAAUUAAGGUAGGGAAGGAGCGCGGUAAGACGCAGGUAGGUCGCCCUACAUGAGGAUCACCCAUGUGAUGU [XARG-A 28]	nM	331
ACAUUUAACUGAAGGAGCGUGAUAAACAUGAGGAUCACCCAUGUACCACAGAUUUUCAGAUCACAGGUAGGUCGCAGACUAAUGA [JR_ExcArginiB_Sub014]	nM	11.3
UUGGGUAUGCGAAGGAGCGGGAAAUAUAUAUAUAUAAUCCUAACAUGAGGAUCACCCAUGUCCCAGGUAGGUCGCGCAUAUUUGG [12.J]	nM	106
AGGUGGCGCGGAAGGAGCGAGUUUGCCUAUUACAUGAGGAUCACCCAUGUGGGUAAUGGGACUCAGGUAGGUCGCCGUUGUCGCU [Same State Arginine B GF 27]	nM	68.8
AAGCGCACAUGAGGAUCACCCAUGUGCGGCCGAGGACCGGUACGGCCGCCACUCGGAACUAGAAAUAGGAACGGGUAGUGCGCAA [TryptophanA Sol_1]	nM	13.6
UGAUGGUGCGGAAGGAGCGUGUAAGAACAAGAACAUGAGGAUCACCCAUGUAUUAAUUUAACACAGGUAGGUCGCCGUGUUAUUG [11.K]	nM	29.6
CCGGCAUGUCGAAGGAGCGUCACAUGAGGAUCACCCAUGUACAUGAGGAUCACCCAUGUGUGACAGGUAGGUCGCGGCGGCCAGG [Exclusion Arginine B GF7]	nM	197
ACCUGUACGAAAAGUGCAGGACACGGAAUACGAGGACCGGUACGGCCGCCACUCGGAAUAACCUGAGGAUCACCCUGGUACCGUG [TrypAS 10 #AlternativeMS2 #Zipper #StaticStem]	nM	26.7
ACAUGAGGAUCACCCAUGUGGCGACUUGAUACCAGACCCGCACUAGUCCCUUGGCAGCAACUACGUGAGGGACACCCAUGUGAAG	nM	38.2
AAUAAUAAGGCGGCCGCCACUAAACAUGAGGAUCACCCAUGUCUCGAGCGCAUACAUAAGGGAUGUAGGACCGGGCCAAUAAUAA [Exclusion - Tryptophan B (Freestyle 1)]	nM	23
AUCCACAGCCGAAGGAGCGCAGUAGGAUGACAUGAGGAUCACCCAUGUGUGUGAUGUGGAUUGCAGGUAGGUCGCGGAGUGGAUU [Exclusion - Arginine B (Freestyle 9)]	nM	60.1
UCGCGAUAGAGAAGGAGCGUCAACACCACUUAACAUGAGGAUCACCCAUGUGUUACUUUGUGACAGGUAGGUCGCUCUAGCGCUU [JR_Nu_ExcArginiB_Sub026]	nM	20.9
AUGCAUAGCACGGCCGCCACUCCAUGUAAACAUGAGGAUCACCCAUGUAAUUUGGAUGUUUUAUAGAGGACCGGGUGAAAUGCAA [JR_ExcTryptoB_Sub004]	nM	10.3
AAGGUAUCACAGAGGUGAUUCAACUGUGAUACCAGCUAGGAAACUAGCCCUUGGCAGCACAUGAGGAUCACCCAUGUAAGAAUAA [(T)'-(M)'-(T1)-(T2)-(M1)-(M2)_Design3_2/19/17]	nM	128
